Catalogue of composite z-score values
TEST PROTOCOL: probe aLAP1 signal on lysate-treated microarray – cell lysate, small-molecule microarray, COS7 lysate, primary screen (AID 1124);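 note: lysate comes from COS7 cells expressing LAP1 and is applied at 0.3 µg/mL; score merges spot fluorescence near 667 nm with signal-to-noise over triplicate slides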
SETUP CONDITIONS: probe aLAP1, fluorescence, higher = more signal
Answer as a number with no unit attached.

COMPOUND	composite z-score
COc1ccc([Si](C)(C)[C@H]2[C@H](CC(=O)N3Cc4ccccc4C[C@H]3CO)O[C@@]3(C(=O)N(Cc4cccc(I)c4)c4ccccc43)[C@@H]2C)cc1	-0.361
CCCC[C@@H]1C[C@H]1[C@@H](NC(=O)c1ccccc1)c1ccccc1	-0.159
O=C1NC(=O)C2C1C=CC(C(O)c1cccs1)N2Nc1ccccn1 (configuration not stated)	0.0919
COC(=O)C(CC#Cc1ccc2c(c1)[C@]1(C(=O)N2)[C@H](C(=O)N2CCCCCCC2)[C@H]2C(=O)O[C@H](c3ccccc3)[C@H](c3ccccc3)N2[C@@H]1c1ccccc1OCCO)C(=O)OC	1.58
CC1(C)C(=O)C(c2ccccc2)=C2CN3C(=O)N(CCc4ccccc4)C(=O)C3(Cc3ccccc3)C=C21 (configuration not stated)	-0.0857
CC(=O)n1cc(C(O)C2C=CC3C(=O)N(c4ccccc4)C(=O)C3N2Nc2ccc(C#N)cc2)c2ccccc21 (configuration not stated)	0.53

Pending compound:
Exam item: What value of composite z-score has been reported for the following compound? `COc1ccccc1CN1C(=O)c2ccccc2[C@](Cc2ccccc2I)(C(=O)NCc2ccccc2)[C@@H]1c1ccc(CO)cc1`
Marked response: 0.729

###

TEST PROTOCOL: compound effects on lung adenocarcinoma cell viability – A549, calcein-AM fluorescence, 48 h, basal, profiling panel (AID 1162); note: test concentration not given here
SETUP CONDITIONS: higher = more signal
Each record gets a class by z-score: low end: < -0.7; middle: ≥ -0.7 and < -0.3; high end: ≥ -0.3

Illustrative cases are given below, each with its answer.
COMPOUND	ASSIGNED LABEL
COC(=O)C(CC#Cc1ccc2c(c1)[C@]1(C(=O)N2)[C@H](C(=O)N2CCCCCCC2)[C@H]2C(=O)O[C@H](c3ccccc3)[C@H](c3ccccc3)N2[C@@H]1c1ccccc1OCCO)C(=O)OC	middle
COc1ccccc1CN1C(=O)c2ccccc2[C@](Cc2ccccc2I)(C(=O)NC2CC2)[C@@H]1c1ccc(CO)cc1	low end
Cc1ccc(S[C@]2(C(=O)NCC(C)C)CC(=O)N(Cc3ccccc3)[C@@H]2c2ccc(CO)cc2)cc1	high end
O=C1C2C=CC(C(O)c3ccc(B(O)O)cc3)N(Nc3ccc([N+](=O)[O-])cc3)C2C(=O)N1c1ccccc1 (stereo not given)	low end
CCCNC(=O)[C@@]1(C)c2ccccc2C(=O)N(Cc2cc(F)cc(C(F)(F)F)c2)[C@H]1c1ccc(CO)cc1	middle
C[N+](C)(C)CCCCNC(=O)[C@H]1C[C@H]2C(=O)N3CCC[C@H]3C(=O)N2[C@H]1c1ccc(O)cc1	low end
C=C(C(=O)CC[C@H](OC(=O)c1cccnc1)c1ccccc1OCCO)C(C)C	high end
C=CCCN(CC#C[C@H]1Oc2ccccc2S(=O)(=O)N2CCC[C@@H]12)S(=O)(=O)c1ccc(C)cc1	high end

Exam item: assign `CC(C)N1C(=O)c2ccccc2[C@](C)(C(=O)NC2CC2)[C@@H]1c1ccc(CO)cc1` to the correct category.
Marked response: low end

Exam item: # classify by z-score band: `[N-]=[N+]=NCc1ccccc1[C@@H]1OC(c2ccc(OCCCO)cc2)=N[C@]1(Cc1ccccc1N=[N+]=[N-])C(N)=O`
Marked response: middle

Exam item: Lab log: `Cc1ccc(S[C@]2(C(=O)NCCCN(C)C)CC(=O)N(C(C)C)[C@@H]2c2ccc(CO)cc2I)cc1` — assign z-score category
Marked response: high end

Exam item: Please let me know in which category the item O=C1OCCC=C[C@H]2OC34C=CCN(CCN5CCOCC5)C(=O)[C@H]3N(CCO)C(=O)[C@@H]4C12 (stereo not given in full) belongs.
Marked response: middle

Exam item: Class for CN1C(=O)C2C=CC(C(O)c3ccccc3)N(NC(=O)OC(C)(C)C)C2C1=O (stereo not given) ?
Marked response: low end

###

System: wheat germ agglutinin (Triticum aestivum), Alexa647-labelled
TEST PROTOCOL: Alexa647-WGA lectin binding to printed small molecules – biochemical, small-molecule microarray, 635/667 nm fluorescence, artefact control for SMM control-protein annotation, profiling panel (AID 1140);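 note: score merges 667 nm feature emission with signal to noise over triplicate slides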
SETUP CONDITIONS: WGA-A647 binding, 635 nm fluorescence, higher = more signal
PROPERTY LABEL: composite z-score
Give a plain numeric answer without units written out.

COMPOUND	composite z-score
CN(C)CCCCCCNC(=O)[C@@H]1C[C@@H]2C(=O)N[C@@H](Cc3ccccc3)C(=O)N2[C@@H]1c1cccc(OCCO)c1	0.346
C=C(COC)C(=O)CC[C@@H](OC(=O)c1ccccc1-c1ccccc1C(=O)O)c1ccc(CO)o1	-0.407
CN1C(=O)C2C=CC(C(O)c3ccccc3)N(NC(=O)OC(C)(C)C)C2C1=O (stereo not drawn)	1.05

Exam item: // query composite z-score value for entry `C=CCNC(=O)[C@H]1[C@@H]2C(=O)O[C@@H](c3ccccc3)[C@@H](c3ccccc3)N2[C@@H](c2ccc(OCCO)cc2)[C@]12C(=O)N(C(=O)OCCOC)c1ccc(C#CC3(O)CCCCCC3)cc12`
Marked response: 0.777

Exam item: Given the compound `COCC1=C([C@H](O)CCc2ccccc2)[C@H](CO)[C@@H]2C(=O)N(Cc3ccccc3)C(=O)[C@@H]2C1` , what is its reported composite z-score?
Marked response: 0.131

Exam item: Value lookup for composite z-score; key = `O=C(CS)NCCCCCNC(=O)[C@H]1C[C@H]2C(=O)N[C@@H](Cc3ccccc3)C(=O)N2[C@H]1c1cccc(OCCO)c1`
Marked response: 0.788

Exam item: # get_value(readout='composite z-score', item= [N-]=[N+]=NCc1ccccc1C[C@]1(C(=O)NCC(O)CO)COC(c2ccc(OCCCO)cc2)=N1 (stereo partly drawn) )
Marked response: 0.964

Exam item: Value lookup for composite z-score; key = `C=C(COC)/C(=C/C[C@H](OC(C)=O)c1ccccc1OCCO)c1cnc2ccccc2c1`
Marked response: 0.666

###

Listed next: entries and their corresponding composite z-score.
TESTED TARGET: Streptavidin (Streptomyces avidinii) (UniProt P22629)
Sequence (P22629 whole entry, looked up): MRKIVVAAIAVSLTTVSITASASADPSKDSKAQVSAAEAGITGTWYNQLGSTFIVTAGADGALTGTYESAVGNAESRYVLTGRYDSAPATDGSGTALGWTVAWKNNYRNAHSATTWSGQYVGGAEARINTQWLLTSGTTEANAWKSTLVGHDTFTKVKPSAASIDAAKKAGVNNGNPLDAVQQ
TEST PROTOCOL: compounds binding control protein streptavidin – biophysical, small-molecule microarray, 635/667 nm fluorescence, artefact control for SMM compound annotation, primary screen (AID 1147);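 note: signal reflects streptavidin binding to arrayed compounds as a control protein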
SETUP CONDITIONS: higher = more signal
Answer as a number with no unit attached.

Example cases with answers are listed next.
COMPOUND	composite z-score
O=C1O[C@@H](c2ccccc2)[C@@H](c2ccccc2)N2[C@@H](c3ccc(O)cc3)[C@]3(C(=O)Nc4ccc(C#CCCO)cc43)[C@@H](C(=O)N3CCCCCCC3)[C@H]12	1.55
O=S(=O)(NCCCO)c1ccc(Br)cc1	0.587
C[N+](C)(C)CCCCNC(=O)[C@H]1C[C@H]2C(=O)N3CCC[C@H]3C(=O)N2[C@H]1c1ccc(O)cc1	0.319
CC1CC/C=C\[C@H]2OC34C=CCN(c5ccc6ccccc6c5)C(=O)[C@H]3N(CCCCCO)C(=O)[C@@H]4C2C(=O)O1 (stereo partly specified)	-1.72
O=C(CS)NCCCCCCNC(=O)[C@H]1C[C@H]2C(=O)N3CCC[C@H]3C(=O)N2[C@H]1c1ccc(O)cc1	-0.322

API: the following record is the query input.
Exam item: Give Streptavidin (Streptomyces avidinii) (UniProt P22629) composite z-score for `C=CCOC(=O)[C@H]1[C@@H]2C(=O)O[C@@H](c3ccccc3)[C@@H](c3ccccc3)N2[C@@H](c2ccc(OCCOC(=O)[C@H]3C[C@H]4C(=O)N[C@@H](CCCC[N+](C)(C)C)C(=O)N4[C@H]3c3ccc(O)cc3)cc2)[C@]12C(=O)Nc1ccccc12`
Marked response: -0.22

###

TESTED TARGET: Epidermal growth factor receptor (Homo sapiens) (UniProt P00533)
Sequence (P00533 whole entry, looked up): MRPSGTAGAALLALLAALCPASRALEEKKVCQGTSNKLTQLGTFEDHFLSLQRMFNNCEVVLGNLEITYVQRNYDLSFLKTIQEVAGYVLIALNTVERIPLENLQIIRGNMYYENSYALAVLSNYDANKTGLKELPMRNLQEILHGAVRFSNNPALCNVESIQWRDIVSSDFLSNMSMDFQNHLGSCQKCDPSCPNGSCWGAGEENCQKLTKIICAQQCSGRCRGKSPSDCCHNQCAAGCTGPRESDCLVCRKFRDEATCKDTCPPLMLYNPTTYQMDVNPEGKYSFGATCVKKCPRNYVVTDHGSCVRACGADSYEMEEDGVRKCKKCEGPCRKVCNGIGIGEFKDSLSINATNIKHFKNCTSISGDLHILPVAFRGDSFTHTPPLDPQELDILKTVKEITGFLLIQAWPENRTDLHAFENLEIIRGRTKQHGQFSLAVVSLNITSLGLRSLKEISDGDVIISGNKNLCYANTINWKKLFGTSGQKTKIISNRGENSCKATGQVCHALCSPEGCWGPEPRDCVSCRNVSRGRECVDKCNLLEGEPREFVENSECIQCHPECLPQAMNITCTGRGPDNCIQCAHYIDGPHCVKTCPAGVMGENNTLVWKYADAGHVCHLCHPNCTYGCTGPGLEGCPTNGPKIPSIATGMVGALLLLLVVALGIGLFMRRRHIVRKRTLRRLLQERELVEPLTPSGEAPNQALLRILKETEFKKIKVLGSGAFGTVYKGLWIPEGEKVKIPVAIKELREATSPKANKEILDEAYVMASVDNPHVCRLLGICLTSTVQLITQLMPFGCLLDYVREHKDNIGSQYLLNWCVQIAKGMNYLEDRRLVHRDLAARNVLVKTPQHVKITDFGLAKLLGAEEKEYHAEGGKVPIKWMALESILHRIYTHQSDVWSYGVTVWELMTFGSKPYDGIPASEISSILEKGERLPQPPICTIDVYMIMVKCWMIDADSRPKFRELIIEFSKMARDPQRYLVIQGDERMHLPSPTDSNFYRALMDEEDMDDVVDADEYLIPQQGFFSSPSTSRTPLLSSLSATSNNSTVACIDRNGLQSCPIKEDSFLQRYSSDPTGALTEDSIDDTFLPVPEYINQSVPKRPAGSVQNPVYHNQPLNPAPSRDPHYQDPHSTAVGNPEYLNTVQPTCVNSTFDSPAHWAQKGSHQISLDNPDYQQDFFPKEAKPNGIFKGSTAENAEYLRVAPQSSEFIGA
TEST PROTOCOL: compounds binding epidermal growth factor receptor – biochemical, small-molecule microarray, 635 nm fluorescence, primary screen (AID 1104);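 note: score merges 667 nm emission intensity with spot signal to noise over triplicate slides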
SETUP CONDITIONS: EGFR binding, higher = more signal
PROPERTY LABEL: composite z-score
Lab note: jot the number down without any unit.

Recorded composite z-score, per entry:
MOLECULE	composite z-score
[N-]=[N+]=NCc1ccccc1[C@H]1OC(c2ccc(OCCCO)cc2)=N[C@@]1(Cc1ccccc1)C(=O)NCC(O)CO (stereo partly drawn)	-0.187
O=C1C2C=CC(C(O)c3cccc4ccccc34)N(n3cnnc3)C2C(=O)N1Cc1ccccc1 (stereo not drawn)	0.402
Cc1cccc(/C=C/C=O)c1	-0.391

Exam item: Find the recorded composite z-score belonging to `CC(=O)NCCCC[C@@H]1NC(=O)[C@@H]2C[C@H](C(=O)NCc3ccc(F)cc3)[C@H](c3ccc(O)cc3)N2C1=O` and report it.
Marked response: 0.0059

Exam item: Can you look up the measured composite z-score of `COc1ccc([Si](C)(C)[C@H]2[C@H](CC(=O)N3Cc4ccccc4C[C@H]3CO)O[C@@]3(C(=O)N(Cc4cccc(I)c4)c4ccccc43)[C@@H]2C)cc1` for me?
Marked response: 1.4

Exam item: Give its composite z-score value. Item: `Cc1ccc(N2C(=O)c3ccccc3[C@@H](C(=O)NCC(C)C)[C@@H]2c2ccc(CO)cc2)nc1`
Marked response: -1.26

Exam item: Consider the molecule shown here: `C=C(/C(=C/C[C@@H](OC(=O)c1ccncc1)c1ccc(CO)o1)c1cc(C(=O)OC)ccc1OC)C(C)C` What is its recorded composite z-score?
Marked response: 0.439

Exam item: What does the record list as composite z-score for `COc1ccc([Si](C)(C)[C@H]2[C@H](CCO)O[C@@]3(C(=O)N(Cc4ccccc4)c4ccc(N5C(=O)COc6ccccc65)cc43)[C@@H]2C)cc1` ?
Marked response: -0.5
